These data points were gathered from patent US20210130452A1.

Target under test: human IL-17A/F heterodimer (human, UniProt Q16552 24-155; Q96PD4 31-163, limits assumed, biotinylated with Sulfo-NHS-LC-Biotin in the AlphaScreen assays only)
Sequence (Q16552 24-155 limits assumed, chain 1 of 2): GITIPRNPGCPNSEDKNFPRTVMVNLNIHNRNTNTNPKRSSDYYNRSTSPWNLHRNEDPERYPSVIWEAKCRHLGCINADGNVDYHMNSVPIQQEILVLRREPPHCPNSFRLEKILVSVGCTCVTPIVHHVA
Sequence (Q96PD4 31-163 limits assumed, chain 2 of 2): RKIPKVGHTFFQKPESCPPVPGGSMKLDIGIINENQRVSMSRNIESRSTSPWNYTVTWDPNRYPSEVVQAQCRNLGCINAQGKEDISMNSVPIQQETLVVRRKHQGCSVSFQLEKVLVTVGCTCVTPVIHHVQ
Method notes: cell-based or functional assay
Measured parameter: IL-17A/F-induced IL-6 production in HT-1080 cells, IC50

Entry 09G10 (VHH, Class 2 Nanobody (anti-IL-17A and IL-17A/F); not shown: c-myc, His6 tag) VHH: EVQLVESGGGLVQAGGSLRLSCAASDSVFTAKAVGWYRQPPGLQREWVAIITSGGKTNYADSSVKGRFTVSVDKVKNTVTLQMNSLKPEDTAVYYCYAQWMGRDYWGQGTQVTVSS , IL-17A/F-induced IL-6 production in HT-1080 cells, IC50 reported as 22.2 nM

// IL-17A/F-induced IL-6 production in HT-1080 cells, IC50 value for 10A04 (VHH, Class 4 Nanobody (cross-reactive: anti-IL-17A, IL-17F and IL-17A/F); not shown: c-myc, His6 tag) VHH: EVQLVESGGGLVQPGGSLRLSCAASGFTFSSYWMYWVRQAPGKGLEWISALAPGGGNRYYAESVNGRFTISRDNAKNSLYLQMNSLKSEDTAVYYCAKDHNVGYRTGEYDYGGQGTQVTVSS : 122 nM

The reported IL-17A/F-induced IL-6 production in HT-1080 cells, IC50 of the binder 04B10 (VHH, Class 2 Nanobody (anti-IL-17A and IL-17A/F); not shown: c-myc, His6 tag) VHH: EVQLVESGGGLVQAGGSQSLSCVASGTIVNINVMGWYRQAPGKQRELVALITSGGGTTYGDSVKGRFTISIDNAKNTVILQMNSLEAEDTAVYYCAAEIGYYSGGTYFSSEAHWGQGTQVTVSS was 59.2 nM
